- Test system: HCC-2998 colon
- assay info: NCI-60 one-dose screen, 48 h
- measurement conditions: 10 µM unless noted
The panel holds about 83,000 compounds, 20% with a hit somewhere; the sample as a whole holds those more often. Activity calls are given as the source filed them. Rule for the calls: active = growth percent below 10; inactive = the rest.
Lab note: assign the record to one of TRUE = active, FALSE = inactive

Reference set (3 entries):
[
  {
    "compound": "C=C(C)[C@@H]1CC[C@]2(C(=O)N3CCN(C)CC3)CC[C@]3(C)[C@H](CC[C@@H]4[C@@]5(C)C/C(=C/c6ccncc6)[C@H](O)C(C)(C)[C@@H]5CC[C@]43C)[C@@H]12",
    "measured target": "HCC-2998 colon",
    "assigned category": "TRUE"
  },
  {
    "compound": "CCCCOC(=O)c1c(C)[nH]c(/C=C2\\N=C(c3ccc[nH]3)C=C2OC)c1C",
    "measured target": "HCC-2998 colon",
    "assigned category": "TRUE"
  },
  {
    "compound": "CCOC(=O)C1=C(C(=O)c2ccc(Br)cc2)C(c2ccc(Br)cc2)NC(=S)N1 (centres undefined)",
    "measured target": "HCC-2998 colon",
    "assigned category": "FALSE"
  }
]

Continue with the compound presented below.
What did this assay record as the result for CC(C)=CCC[C@](C)(O)[C@H]1CC[C@]2(C)[C@@H]1CC[C@@H]1[C@@]3(C)CC[C@H](OC(=O)CCC(=O)O)C(C)(C)[C@@H]3CC[C@]12C ?
FALSE

* * *

Examples of compounds with documented growth follow.
- Test system: HS 578T breast
- assay info: NCI-60 one-dose screen, 48 h (100 = growth as untreated, 0 = no growth, -100 = all killed)
- measurement conditions: 10 µM unless noted
This is part of a sample that, as a whole, favours compounds with a hit. Of some 83,000 tested, about 20% had one in any assay. The source made the active and inactive calls. How the source made its calls: active means growth percent below 10; inactive means the rest.

[
  {
    "compound": "CCCCCCCCCCCCCCNC(=O)Nc1ccc(Cl)c(Cl)c1",
    "growth": "84.2% (inactive)"
  },
  {
    "compound": "O=[N+]([O-])c1cc(CCl)ccc1OCCBr",
    "growth": "108% (inactive)"
  },
  {
    "compound": "O=C1Nc2ccccc2/C1=C/C(=O)c1ccc(N2CCOCC2)cc1",
    "growth": "84% (inactive)"
  },
  {
    "compound": "COc1ccc(-c2ccc(NNC(=O)c3ccc(F)cc3)nn2)cc1OC",
    "growth": "41.1% (inactive)"
  },
  {
    "compound": "N#Cc1ccc(-c2ccc(COc3ccc(CC4SC(=O)NC4=O)cc3)cc2)cc1 (stereo not drawn)",
    "growth": "72.5% (inactive)"
  }
]

Documented growth of Cc1ccc(-n2nc3n(/c2=N\C(=O)NS(=O)(=O)c2ccc(C)cc2)CCN3C2=NCCN2)cc1 : 99.7% (inactive)

get_value(item= C[C@H]1[C@H](C)CC[C@]2(C(=O)N3CCN(C)CC3)CC[C@]3(C)C(=CC[C@@H]4[C@@]5(C)C/C(=C/c6ccco6)C(=O)C(C)(C)[C@@H]5CC[C@]43C)[C@H]12 , readout=growth) returns 53.2% [100 µM] (inactive)

Lab book: growth of CCN(CC)c1ccc2cc(NC(=O)OCCNC(=O)CCNC(=O)[C@H](CC(C)C)NC(=O)C(C)(C)NC(=O)C(C)(C)NC(=O)[C@H](CC(C)C)NC(=O)CCNC(=O)C(C)(C)NC(=O)[C@H](CC(C)C)NC(=O)CCNC(=O)[C@@](C)(CC)NC(=O)[C@H](C)NC(=O)CCNC(=O)C(C)(C)NC(=O)[C@H](C)NC(=O)[C@@H]3CCCN3C(=O)[C@@](C)(CC)NC(=O)[C@H](Cc3ccccc3)NC(=O)C3CCCN3C(=O)C(C)(C)NC(=O)C3CCCN3C(=O)C(C)(C)NC(C)=O)c(=O)oc2c1 (stereo partly drawn) noted as -60.1% (active)

* * *

- Tested on: BT-549 breast
- assay info: NCI-60 one-dose screen, 48 h
- measurement conditions: 10 µM unless noted
Compounds without any hit were thinned out: in the full panel of roughly 83,000, 20% have a hit. Calls of active or inactive are those of the source. Rule for the calls: active = growth percent below 10; inactive = the rest.
A correct response names exactly one class from label 1 (active), label 0 (inactive)

[
  {
    "compound": "COc1cc(-c2nc(SCCC(C)C)nc(Nc3ccc(S(N)(=O)=O)cc3)c2C#N)cc(OC)c1OC",
    "assigned category": "label 0"
  },
  {
    "compound": "Nc1ccc(Cl)c([N+](=O)[O-])c1",
    "assigned category": "label 0"
  },
  {
    "compound": "COc1ccc(-c2nc3ccccn3c2/C=C/C(=O)c2cc(OC)c(OC)c(OC)c2)cc1OC",
    "assigned category": "label 1"
  }
]

Write down the call the test reported for this compound. Item: CCCCC1COc2cccc3c2N1C=C/C3=C\C(=O)n1ccc2ccccc21 (centres undefined)
label 0

Returns: the outcome recorded for COc1ccc2c3ccnc(C(F)(F)F)c3n(CCCCN)c2c1 in this assay.
label 0

Give the logged outcome of this assay for the following compound: CCCCCCCCCCCCCC[n+]1cccc(C(N)=O)c1
label 1

Test call, this compound: CCOC(=O)Nc1ccc2c(c1)/C(=N\NC(=S)NC)c1ccccc1-2
label 0

What was the test verdict on C=C(C)[C@@H]1CC[C@]2(C(=O)NCCCCCCN(CCCN)CCCN)CC[C@]3(C)[C@H](CC[C@@H]4[C@@]5(C)CC[C@H](OCCCN)C(C)(C)[C@@H]5CC[C@]43C)[C@@H]12 ?
label 0

Hello, I am checking results. What call was entered for CCc1ccc(C2=C/C(=C/c3ccccc3)C(=O)N2CCc2ccc(S(N)(=O)=O)cc2)cc1 ?
label 0

* * *

- Tested on: DU-145 prostate
- assay info: NCI-60 one-dose screen, 48 h
- measurement conditions: 10 µM unless noted
Compounds without any hit were thinned out: in the full panel of roughly 83,000, 20% have a hit. Active and inactive are the calls of the source. Rule for the calls: active = growth percent below 10; inactive = the rest.
Field 'call' accepts Y (active), N (inactive)

Worked examples follow.
[
  {
    "compound": "O=S(=O)(NCCCNc1nccc(-c2c(-c3cccc(F)c3)nc3occn23)n1)c1cccc2ccccc12",
    "assigned category": "N"
  },
  {
    "compound": "C[C@H]1[C@H](C)CC[C@]2(C(=O)N3CCN(C)CC3)CC[C@]3(C)C(=CC[C@@H]4[C@@]5(C)C/C(=C/c6ccco6)C(=O)C(C)(C)[C@@H]5CC[C@]43C)[C@H]12",
    "assigned category": "N"
  },
  {
    "compound": "CC(C)[N+](C)(C)CC(O)COc1cccc2ccccc12 (centres undefined)",
    "assigned category": "N"
  }
]

Please let me know the test result on file for CC1(C)CC[C@]2(C(N)=O)CC[C@]3(C)C(=CC[C@@H]4[C@@]5(C)C/C(=C/c6cccnc6)C(=O)C(C)(C)[C@@H]5CC[C@]43C)[C@@H]2C1 .
Y

* * *

- Tested on: DU-145 prostate
- assay info: NCI-60 one-dose screen, 48 h
- measurement conditions: 10 µM unless noted
Compounds without any hit were thinned out: in the full panel of roughly 83,000, 20% have a hit. Calls of active or inactive are those of the source. How the source made its calls: active means growth percent below 10; inactive means the rest.
Respond with a class label; see label 1 = active, label 0 = inactive

Could you check what this test reported for Cc1ccccc1OC(=O)c1cccc(Cl)c1 ?
label 0

Lab log entry: O=C(Nc1cccc2cccnc12)c1cc(C(=O)c2ccc(Cl)cc2)n2ccc(-c3ccncc3)cc12 — outcome as called in the assay?
label 0

What did the test return for Nn1c(Nc2ccc(S(=O)(=O)Nc3ncccn3)cc2)nnc(/C=C/c2c(O)ccc3ccccc23)c1=O ?
label 0

Outcome? CC(=O)OC[C@]12CC[C@@H]([C@@H](C)C(N)=O)[C@@H]1[C@H]1CC[C@@H]3[C@@]4(C)CC[C@H](OC(C)=O)C(C)(C)[C@@H]4CC[C@@]3(C)[C@]1(C)CC2
label 1

* * *

- Test system: SR leukemia
- assay info: NCI-60 one-dose screen, 48 h (100 = growth as untreated, 0 = no growth, -100 = all killed)
- measurement conditions: 10 µM unless noted
About 83,000 compounds went through this panel and 20% of them were active in at least one assay; those are over-represented in the sample as a whole. Calls of active or inactive are those of the source. The calls were made as follows: active = growth percent below 10; inactive = the rest.
Here, each record is paired with measured growth data.

Look over these answered cases.
[
  {
    "compound": "CCN(CC)CCCCCCNc1cccc2cc(Br)cnc12",
    "measured target": "SR leukemia",
    "result": "28.4% (inactive)"
  },
  {
    "compound": "C[C@@H]1C[C@H]2C(=O)O[C@@H](C)[C@H](NC(=O)[C@H](Cc3cc(F)cc(F)c3)NC(=O)Nc3ccc(Cl)cc3F)C(=O)N3C[C@H](O)C[C@H]3C(=O)N3CCN(C)C[C@H]3C(=O)N[C@@H](C)C(=O)N2C1",
    "measured target": "SR leukemia",
    "result": "40.3% (inactive)"
  },
  {
    "compound": "COc1ccc(C(=O)c2nccc3cc(OC)c(OC)cc23)cc1OC",
    "measured target": "SR leukemia",
    "result": "102% (inactive)"
  },
  {
    "compound": "CC(C)(C)c1cc(C(=O)Nc2ccccc2C(=O)NCCN)cc(C(C)(C)C)c1",
    "measured target": "SR leukemia",
    "result": "-28.6% (active)"
  },
  {
    "compound": "C=C(C)[C@@H]1CC[C@]2(C(=O)NCCCCCCN(CCCN)CCCN)CC[C@]3(C)[C@H](CC[C@@H]4[C@@]5(C)CC[C@H](OCCCN)C(C)(C)[C@@H]5CC[C@]43C)[C@@H]12",
    "measured target": "SR leukemia",
    "result": "18.4% [100 µM] (inactive)"
  }
]

growth of Clc1ccc2nc(-c3ccc(-c4ccc(/C=N/NC5=NCCN5)cc4)s3)cn2c1 , assay on SR leukemia, is 8.33% (active)

Measured on SR leukemia, CC[C@]1(O)CC2CN(CCc3c([nH]c4ccccc34)[C@@](C(=O)OC)(c3cc4c(cc3OC)N(C=O)[C@H]3[C@@](O)(C(=O)OC)[C@H](OC(C)=O)[C@]5(CC)C=CCN6CC[C@]43[C@@H]65)C2)C1 (stereo partly drawn) has a documented growth of 13% (inactive)

The compound COc1cc(/C=C/C(=O)/C=C/c2ccc(-n3ccnc3)cc2)ccc1O , when measured on SR leukemia, yielded growth of 25.1% (inactive)

Lab entry: SR leukemia assay, compound Cc1ccc(N)c(O)c1 , growth = 112% (inactive)

Item Nc1ccc(Cl)c([N+](=O)[O-])c1 was tested on SR leukemia; the reported growth is 90.1% (inactive)

Entry source: PubChem BioAssay (NCI)
